Where these numbers come from: PubChem BioAssay (NCI)

System: MDA-MB-468 breast
Assay: NCI-60 one-dose screen, 48 h
Details: 10 µM unless noted
This is part of a sample that, as a whole, favours compounds with a hit. Of some 83,000 tested, about 20% had one in any assay. Active and inactive are the calls of the source. The calls were made as follows: active = growth percent below 10; inactive = the rest.
Reply using exactly one outcome from yes (active), no (inactive)

QUERY: # lookup: test call for CCOc1ccc(C(=O)Nc2ncc(Cc3ccc(F)cc3)s2)cc1
RESULT: no

QUERY: # repeat for Cc1ccc2[nH]cc(-c3nc(-c4cn(C)c5ncccc45)cs3)c2c1
RESULT: yes

QUERY: # repeat for COc1ccc(-c2c(-c3cc(OC)c(OC)c(OC)c3)noc2N)cc1
RESULT: yes

QUERY: # repeat for COC(=O)C1CCCN1C(=O)[C@@H]1CCCN1C(=O)[C@H](Cc1c[nH]c2ccccc12)NC(=S)Nc1cc(C(F)(F)F)cc(C(F)(F)F)c1 (some centres undefined)
RESULT: no

QUERY: # repeat for CC(=O)Nc1nc(C)c(C(=O)NNC(=O)Nc2ccccc2)s1
RESULT: no

QUERY: # repeat for COC(=O)c1nc(=S)[nH]c(C(=O)OC)c1C(=O)c1ccc2ccccc2c1
RESULT: no

QUERY: # repeat for COc1ccc2c(c1)C(=O)c1c-2c(OCCN(C)C)nc2cc(OC)ccc12
RESULT: no

QUERY: # repeat for CC[C@]12C=CCN3CC[C@@]4(c5cc([C@H]6CCC(=O)N6)c(OC)cc5N(C)[C@H]4[C@@](O)(C(=O)OC)[C@@H]1OC(C)=O)[C@@H]32
RESULT: no

QUERY: # repeat for O=C1CC(C(F)(F)F)Cc2nc3ccc(Br)cc3cc21 (centres undefined)
RESULT: no

###

System: MDA-MB-468 breast
Experiment: NCI-60 one-dose screen, 48 h
Details: 10 µM unless noted
About 83,000 compounds went through this panel and 20% of them were active in at least one assay; those are over-represented in the sample as a whole. Calls of active or inactive are those of the source. The calls were made as follows: active = growth percent below 10; inactive = the rest.
Reply using exactly one outcome from active, inactive

QUERY: # lookup: test call for CCN(CC)Cc1cc(Nc2c3ccc(Cl)cc3nc3ccc(OC)cc23)ccc1O
RESULT: inactive

QUERY: # repeat for C=C1C(=O)O[C@H]2[C@H]1CC/C(COC(=O)NCc1ccc(Cn3c(=O)sn(-c4ccc(C#N)cc4)c3=O)cc1)=C\CC[C@@]1(C)O[C@@H]21
RESULT: active

QUERY: # repeat for CCOC(=O)/C=C/c1ccc(C(=O)OCC)[nH]1
RESULT: inactive

QUERY: # repeat for NS(=O)(=O)c1cccc(Nc2nc(SCC(=O)c3ccc(Br)cc3)nc3ccccc23)c1
RESULT: inactive

QUERY: # repeat for CC1(C)CCc2cc(-c3ccn(S(=O)(=O)c4ccc(Cl)cc4)n3)ccc2O1
RESULT: inactive

QUERY: # repeat for C#CCn1c2c(c3ccccc31)C[C@]1(C)[C@H]3CC[C@@H]4[C@@H]5C(=CCC[C@H]5C(=C)C)CC[C@@]4(C)[C@]3(C)CC[C@H]1C2(C)C
RESULT: inactive

QUERY: # repeat for CCOc1ccc(N(C)c2ccc(/C=C/C3=[N+](C)c4ccccc4C3(C)C)cc2)cc1
RESULT: active

QUERY: # repeat for CCc1c(C(=O)N[C@@H]2c3cc(Cl)ccc3CC[C@@H]2O)[nH]c(C)c1C(C)=O
RESULT: inactive

QUERY: # repeat for C=C(C)[C@@H]1CC[C@]2(C(=O)NCCNCCNCCN)CC[C@]3(C)[C@H](CC[C@@H]4[C@@]5(C)CC[C@H](O)C(C)(C)[C@@H]5CC[C@]43C)[C@@H]12
RESULT: active

QUERY: # repeat for CCOC(=O)c1cc(C(=O)c2ccc(Br)cc2)n2ccc(/C=C/c3cc[n+](CC(=O)c4ccc(OC)cc4)cc3)cc12
RESULT: inactive

QUERY: # repeat for O=C(Nc1cccc(C2=NCCN2)c1)c1cccc(C(=O)Nc2cccc(C3=NCCN3)c2)c1
RESULT: inactive

QUERY: # repeat for O=C(NCc1ccc(Cl)cc1Cl)C1CCC(=O)N1c1cccs1 (configuration not stated)
RESULT: inactive

QUERY: # repeat for C=C(C)[C@@H]1CC[C@]2(C(=O)NNC(=O)c3cccnc3)CC[C@]3(C)[C@H](CC[C@@H]4[C@@]5(C)CCCNC(C)(C)[C@@H]5CC[C@]43C)[C@@H]12
RESULT: inactive

QUERY: # repeat for O=[N+]([O-])c1cccc(C2CC(c3ccccc3)=Nc3ccccc3S2)c1 (configuration not stated)
RESULT: inactive

QUERY: # repeat for COc1ncc(-c2ccc3nccc(C#CCCCCC(=O)NO)c3c2)cc1NS(=O)(=O)c1ccc(F)cc1F
RESULT: active

QUERY: # repeat for CN(C)CCN(C)CC(C)(C)C(=O)/C=C/c1ccc(Cl)cc1
RESULT: active

QUERY: # repeat for C=C1C(=O)O[C@H]2[C@H]1CC/C(CNC(=O)/C=C/c1ccc(Cl)cc1Cl)=C\CC[C@@]1(C)O[C@@H]21
RESULT: active
